The measured values listed here are drawn from ChEMBL document CHEMBL5352445.

What Activity was measured for each of the following?
SYSTEM NAME: Polyunsaturated fatty acid lipoxygenase ALOX15 (Homo sapiens)
Sequence (whole entry): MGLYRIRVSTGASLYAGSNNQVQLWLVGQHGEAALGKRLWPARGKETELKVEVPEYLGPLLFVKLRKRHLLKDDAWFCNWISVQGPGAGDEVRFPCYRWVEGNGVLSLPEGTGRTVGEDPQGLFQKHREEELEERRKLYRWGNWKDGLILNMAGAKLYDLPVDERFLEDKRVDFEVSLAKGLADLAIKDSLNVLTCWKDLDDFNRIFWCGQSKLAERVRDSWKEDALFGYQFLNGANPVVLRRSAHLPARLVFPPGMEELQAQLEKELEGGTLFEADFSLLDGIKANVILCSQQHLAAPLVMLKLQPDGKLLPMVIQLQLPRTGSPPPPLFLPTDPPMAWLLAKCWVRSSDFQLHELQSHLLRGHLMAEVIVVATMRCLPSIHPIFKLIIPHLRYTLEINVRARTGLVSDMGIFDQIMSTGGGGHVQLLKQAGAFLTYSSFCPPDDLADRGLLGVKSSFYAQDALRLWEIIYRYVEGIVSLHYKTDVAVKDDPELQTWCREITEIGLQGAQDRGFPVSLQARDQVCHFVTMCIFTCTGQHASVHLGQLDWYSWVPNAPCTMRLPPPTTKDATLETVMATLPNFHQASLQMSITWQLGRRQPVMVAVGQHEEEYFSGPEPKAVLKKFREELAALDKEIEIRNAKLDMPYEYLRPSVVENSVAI
PROCEDURE SUMMARY: Inhibition of 15-lipoxygenase in human PMNL cells using arachidonic acid as substrate assessed as residual activity at 10 uM preincubated with compound for 15 mins followed by A23187 and substrate addition and measured after 10 mins by HPLC analysis relative to control
Format: cell-based
CONDITION INFO: time 25.0 min
Give bare numbers, in %.

1. Oc1ccc(-c2ccc3c(c2)OCCO3)cc1O : 84.8

Hey, can you go through the list below and give me Activity for every item?
1. Oc1ccc(-c2ccc(O)c(O)c2)cc1
2. CCOc1ccc2ccccc2c1-c1ccc(O)c(O)c1
3. Oc1ccc(-c2cccc(Cl)c2)cc1O
4. Oc1ccc(-c2cccc3c2sc2ccccc23)cc1O
5. Oc1ccc(-c2ccc(Cl)cc2)cc1O
6. Oc1ccc(-c2cc3ccccc3o2)cc1O

stdout:
1: 80.8; 2: 82.8; 3: 84.1; 4: 70.5; 5: 91.4; 6: 71.1

# batch: return Activity for each of the 3 compounds below
1. Oc1ccc(-c2ccc3ccccc3c2)cc1O
2. Oc1ccc(-c2cccc3c2oc2ccccc23)cc1O
3. Oc1ccc(-c2ccccc2)cc1O

stdout:
57.2
70.3
112
